assay.remarks: Selectivity ratio, ratio of IC50 for antiproliferative activity against human HT-29 cells to IC50 for antiproliferative activity against human MCF7 cells expressing CYP1A1
Assay type: functional
measure: Ratio IC50

CCCCCN1CCN(c2ccc(S(=O)(=O)Oc3cc(Cl)cc(Cl)c3)cc2)C1=O ... >100
CCCCN1CCN(c2ccc(S(=O)(=O)Oc3cc(OC)c(OC)c(OC)c3)cc2)C1=O ... >172
CCCCCN1CCN(c2ccc(S(=O)(=O)Oc3cc(OC)cc(OC)c3)cc2)C1=O ... >21
CCCCCCN1CCN(c2ccc(S(=O)(=O)Oc3cc(OC)c(OC)c(OC)c3)cc2)C1=O ... >18
CCCCCN1CCN(c2ccc(S(=O)(=O)Oc3cccc(Cl)c3)cc2)C1=O ... >31
CCCCCN1CCN(c2ccc(S(=O)(=O)Oc3cccc(I)c3)cc2)C1=O ... >90
CCCCCN1CCN(c2ccc(S(=O)(=O)Oc3ccc(OC)c(OC)c3)cc2)C1=O ... >18
CCCCCN1CCN(c2ccc(S(=O)(=O)Oc3cccc(OC)c3)cc2)C1=O ... >48
CCCCCCN1CCN(c2ccc(S(=O)(=O)Oc3cc(Br)cc(Br)c3)cc2)C1=O ... >10
CCCCCCN1CCN(c2ccc(S(=O)(=O)Oc3cccc(I)c3)cc2)C1=O ... >1.1

---

IC50 overview
Test system: MCF7
assay.remarks: Antiproliferative activity against human MCF7 cells expressing CYP1A1 assessed as cell growth inhibition incubated for 48 hrs by sulforhodamine B assay
Type: functional, cell-based
condition.description: MCF7, 48 h
measure: IC50 (nM)

CCCCCCN1CCN(c2ccc(S(=O)(=O)Oc3cc(Br)cc(Br)c3)cc2)C1=O ... 120
CCCCCN1CCN(c2ccc(S(=O)(=O)Oc3ccc(OC)c(OC)c3)cc2)C1=O ... 700
CCCCCN1CCN(c2ccc(S(=O)(=O)Oc3cc(F)cc(F)c3)cc2)C1=O ... 1000
COc1cc(OS(=O)(=O)c2ccc(N3CCNC3=O)cc2)cc(OC)c1OC ... 25

---

Tested on: MCF7
assay.remarks: Antiproliferative activity against human MCF7 cells expressing CYP1A1 assessed as cell growth inhibition incubated for 48 hrs by sulforhodamine B assay
Assay type: functional, cell-based
condition.description: MCF7, 48 h
Consider the following compounds and their measured IC50 readings.
measure: IC50 (nM)

CCCCCN1CCN(c2ccc(S(=O)(=O)Oc3cccc(Br)c3)cc2)C1=O ... 300
CCCCCCN1CCN(c2ccc(S(=O)(=O)Oc3cc(OC)c(OC)c(OC)c3)cc2)C1=O ... 140
CCCCCCN1CCN(c2ccc(S(=O)(=O)Oc3cccc(Cl)c3)cc2)C1=O ... 1800
CCCCCN1CCN(c2ccc(S(=O)(=O)Oc3cccc(F)c3)cc2)C1=O ... 1200

---

assay.remarks: Stability in human liver microsomes assessed as intrinsic clearance incubated for 60 mins by HPLC analysis
Format: ADME, Microsome
condition.description: read-out: CLH
measure: microsomal CLint (µL/min/mg)

CCCCCN1CCN(c2ccc(S(=O)(=O)Oc3cc(OC)c(OC)c(OC)c3)cc2)C1=O ... 24.3
CCCCN1CCN(c2ccc(S(=O)(=O)Oc3cccc(I)c3)cc2)C1=O ... 14
CCCCCN1CCN(c2ccc(S(=O)(=O)Oc3cccc(I)c3)cc2)C1=O ... 19
CCCCCN1CCN(c2ccc(S(=O)(=O)Oc3cc(Cl)cc(Cl)c3)cc2)C1=O ... 12
CCCCN1CCN(c2ccc(S(=O)(=O)Oc3cc(OC)cc(OC)c3)cc2)C1=O ... 20.7
CCCCN1CCN(c2ccc(S(=O)(=O)Oc3cccc(Cl)c3)cc2)C1=O ... 11
CCCN1CCN(c2ccc(S(=O)(=O)Oc3cc(OC)c(OC)c(OO)c3)cc2)C1=O ... 13
CCCCCN1CCN(c2ccc(S(=O)(=O)Oc3cccc(Cl)c3)cc2)C1=O ... 5
CCCCN1CCN(c2ccc(S(=O)(=O)Oc3cc(OC)c(OC)c(OC)c3)cc2)C1=O ... 15
CCCCN1CCN(c2ccc(S(=O)(=O)Oc3cc(Cl)cc(Cl)c3)cc2)C1=O ... 16
CCCCCN1CCN(c2ccc(S(=O)(=O)Oc3cc(OC)cc(OC)c3)cc2)C1=O ... 20

---

System: MCF7
assay.remarks: Antiproliferative activity against human MCF7 cells expressing CYP1A1 assessed as cell growth inhibition incubated for 48 hrs by sulforhodamine B assay
Format: functional, cell-based
condition.description: MCF7, 48 h
Entries and their measured log10(IC50) follow.
measure: log10(IC50) (log10 of the value in nM)

CCCCCN1CCN(c2ccc(S(=O)(=O)Oc3cccc(Cl)c3)cc2)C1=O ... 2.60
CCCCCN1CCN(c2ccc(S(=O)(=O)Oc3cc(Cl)cc(Cl)c3)cc2)C1=O ... 1.70
CCCCCN1CCN(c2ccc(S(=O)(=O)Oc3cccc(I)c3)cc2)C1=O ... 2.15
COc1ccc(/C=C\c2cc(OC)c(OC)c(OC)c2)cc1O ... 0.95
CCCCN1CCN(c2ccc(S(=O)(=O)Oc3cc(OC)c(OC)c(OC)c3)cc2)C1=O ... 1.46

---

Examples of compounds with documented Ki follow.
experimental.system: Cytochrome P450 1A1 (Homo sapiens, UniProt P04798)
Sequence (P04798 whole entry): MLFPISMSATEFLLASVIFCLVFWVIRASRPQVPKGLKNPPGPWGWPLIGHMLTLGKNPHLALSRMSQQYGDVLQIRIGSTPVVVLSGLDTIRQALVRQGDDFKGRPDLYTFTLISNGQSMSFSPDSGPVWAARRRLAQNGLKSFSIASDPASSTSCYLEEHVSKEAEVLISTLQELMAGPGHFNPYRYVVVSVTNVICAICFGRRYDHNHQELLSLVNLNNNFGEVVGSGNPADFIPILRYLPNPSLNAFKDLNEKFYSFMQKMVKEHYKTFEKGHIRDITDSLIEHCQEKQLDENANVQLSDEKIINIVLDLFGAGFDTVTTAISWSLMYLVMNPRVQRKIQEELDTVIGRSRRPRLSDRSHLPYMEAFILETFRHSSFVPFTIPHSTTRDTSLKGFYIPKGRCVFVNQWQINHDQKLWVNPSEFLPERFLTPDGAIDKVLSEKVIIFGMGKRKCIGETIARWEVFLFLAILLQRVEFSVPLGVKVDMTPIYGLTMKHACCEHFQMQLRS
measure: Ki (nM)

CCCCCN1CCN(c2ccc(S(=O)(=O)Oc3cc(OC)cc(OC)c3)cc2)C1=O ... 230
CCCCCN1CCN(c2ccc(S(=O)(=O)Oc3cc(OC)c(OC)c(OC)c3)cc2)C1=O ... 1400
O=c1cc(-c2ccccc2)oc2c1ccc1ccccc12 [ALPHA-NAPHTHOFLAVONE] ... 50
CCCCCN1CCN(c2ccc(S(=O)(=O)Oc3cccc(Cl)c3)cc2)C1=O ... 600
CCCCN1CCN(c2ccc(S(=O)(=O)Oc3cc(OC)c(OC)c(OC)c3)cc2)C1=O ... 140

---

Test system: HT-1080
assay.remarks: Antitumor activity against human HT-1080 cells expressing CYP1A1 xenografted in chick embryo assessed as reduction in tumor wet weight at 1 ug, iv incubated for 17 days by CAM assay
Format: functional
Set-up: scale not given: the % may be the effect or the level left
condition.description: dose 1 µg, time 17 day
measure: Activity (%)

COc1cc(OS(=O)(=O)c2ccc(N3CCNC3=O)cc2)cc(OC)c1OC ... 68
CCCCN1CCN(c2ccc(S(=O)(=O)Oc3cc(OC)c(OC)c(OC)c3)cc2)C1=O ... 51
CCCCCN1CCN(c2ccc(S(=O)(=O)Oc3cc(OC)cc(OC)c3)cc2)C1=O ... 71
CCCCCN1CCN(c2ccc(S(=O)(=O)Oc3cc(OC)c(OC)c(OC)c3)cc2)C1=O ... 62

---

microsomal CLint reference
assay.remarks: Stability in rat liver microsomes assessed as intrinsic clearance incubated for 60 mins by HPLC analysis
Assay type: ADME, Microsome
condition.description: read-out: CLH
measure: microsomal CLint (µL/min/mg)

CCCCN1CCN(c2ccc(S(=O)(=O)Oc3cccc(I)c3)cc2)C1=O ... 109
CCCCN1CCN(c2ccc(S(=O)(=O)Oc3cccc(Cl)c3)cc2)C1=O ... 65
CCCCN1CCN(c2ccc(S(=O)(=O)Oc3cc(OC)c(OC)c(OC)c3)cc2)C1=O ... 77
CCCN1CCN(c2ccc(S(=O)(=O)Oc3cc(OC)c(OC)c(OO)c3)cc2)C1=O ... 19.5
CCCCCN1CCN(c2ccc(S(=O)(=O)Oc3cccc(I)c3)cc2)C1=O ... 24
CCCCCN1CCN(c2ccc(S(=O)(=O)Oc3cc(OC)c(OC)c(OC)c3)cc2)C1=O ... 11.1
CCCCCN1CCN(c2ccc(S(=O)(=O)Oc3cc(OC)cc(OC)c3)cc2)C1=O ... 13
CCCCCN1CCN(c2ccc(S(=O)(=O)Oc3cc(Cl)cc(Cl)c3)cc2)C1=O ... 9
CCCCN1CCN(c2ccc(S(=O)(=O)Oc3cc(Cl)cc(Cl)c3)cc2)C1=O ... 29
CCCCCN1CCN(c2ccc(S(=O)(=O)Oc3cccc(Cl)c3)cc2)C1=O ... 12
CCCCN1CCN(c2ccc(S(=O)(=O)Oc3cc(OC)cc(OC)c3)cc2)C1=O ... 15

Every entry's value here was drawn from ChEMBL document CHEMBL5316344.
